B1: library; numbered along this chain (parent)
chain: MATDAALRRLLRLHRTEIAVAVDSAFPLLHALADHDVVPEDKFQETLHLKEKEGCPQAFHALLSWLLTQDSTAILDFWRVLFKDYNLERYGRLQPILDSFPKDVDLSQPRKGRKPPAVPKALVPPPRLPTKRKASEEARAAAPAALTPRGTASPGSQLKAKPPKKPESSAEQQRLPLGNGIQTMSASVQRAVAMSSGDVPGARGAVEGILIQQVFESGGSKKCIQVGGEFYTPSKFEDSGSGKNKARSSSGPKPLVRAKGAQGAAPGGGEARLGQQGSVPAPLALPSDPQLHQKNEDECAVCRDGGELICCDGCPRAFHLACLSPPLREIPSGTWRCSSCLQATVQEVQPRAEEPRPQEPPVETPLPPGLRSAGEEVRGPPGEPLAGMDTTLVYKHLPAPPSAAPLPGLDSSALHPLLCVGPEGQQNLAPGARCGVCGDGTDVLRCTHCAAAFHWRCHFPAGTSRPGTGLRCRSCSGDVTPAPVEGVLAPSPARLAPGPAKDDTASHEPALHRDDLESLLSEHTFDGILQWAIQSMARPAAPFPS

Variants of: B1
experiment: AIRE transcriptional activation functional score (insulin promoter-GFP; nonsense median 0, synonymous median 1) (normalised score); higher = higher AIRE activity (more reporter activation)
measurement_parameters: with insulin promoter-GFP reporter in HEK293
Entry flag: t if AIRE transcriptional activation functional score reaches 0.4; f if it does not.

Q425G: t
P405R: t
D389G: t
P401V: t
D442N: t
L444K: t
K222F: f
P542K: f
V487P: t
I74H: t
W78L: f
V443W: f
L341V: t
L418S: t
